MEASUREMENT_TARGET: d-enCas12a (Acidaminococcus sp., UniProt U2UMQ6 1-1307, E174R;S542R;K548R;D908A;E993A;D1235A)
ASSAY_DETAILS: Spec-seq (native PAGE EMSA with sequencing of bound and unbound); 25 mM Tris-HCl pH 7.4, 150 mM KCl, 5 mM MgCl2, 10% glycerol, 1 mM DTT, 40 ng/uL salmon sperm DNA; 400 nM Cas12a, 480 nM crRNA, 50 nM library, 37 C 1 h; native PAGE at room temperature; high values mean tight binding;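 also: relative affinity from the bound to unbound sequence frequency ratio in Spec-seq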
ASSAY_CONDITIONS: protein: recombinant

{"BINDER": "TTAT (dsDNA) DNA 1: GCTATCTAGTGCTCAGTACGCACTGTTATAGGAAACTTCTGGCAGGACCAGGTCATGAGATCGGAAGAGCACACGTCTGAACTCCAGTCA DNA 2: TGACTGGAGTTCAGACGTGTGCTCTTCCGATCTCATGACCTGGTCCTGCCAGAAGTTTCCTATAACAGTGCGTACTGAGCACTAGATAGC RNA: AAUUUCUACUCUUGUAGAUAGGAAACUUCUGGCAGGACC", "binding signal / lnKA": -4.53}
{"BINDER": "CACA (dsDNA) DNA 1: GCTATCTAGTGCTCAGTACGCACTGCACAAGGAAACTTCTGGCAGGACCAGGTCATGAGATCGGAAGAGCACACGTCTGAACTCCAGTCA DNA 2: TGACTGGAGTTCAGACGTGTGCTCTTCCGATCTCATGACCTGGTCCTGCCAGAAGTTTCCTTGTGCAGTGCGTACTGAGCACTAGATAGC RNA: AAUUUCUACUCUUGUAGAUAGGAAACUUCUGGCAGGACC", "binding signal / lnKA": -2.71}
{"BINDER": "GTAC (dsDNA) DNA 1: GCTATCTAGTGCTCAGTACGCACTGGTACAGGAAACTTCTGGCAGGACCAGGTCATGAGATCGGAAGAGCACACGTCTGAACTCCAGTCA DNA 2: TGACTGGAGTTCAGACGTGTGCTCTTCCGATCTCATGACCTGGTCCTGCCAGAAGTTTCCTGTACCAGTGCGTACTGAGCACTAGATAGC RNA: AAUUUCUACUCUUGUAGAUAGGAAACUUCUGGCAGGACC", "binding signal / lnKA": -5}
